Overview of reported SPOT intensity across a group of binders:
# TEST_TARGET: Bem1-2, P29366
# Sequence (P29366 139-227): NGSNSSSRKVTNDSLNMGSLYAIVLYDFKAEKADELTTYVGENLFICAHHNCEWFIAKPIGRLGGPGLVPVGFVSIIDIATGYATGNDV
# METHOD_DESCRIPTION: SPOT array
# ASSAY_CONDITIONS: median of control spots 4347

BINDER | VALUE_MEASURED
SSSSTPPTLPPRRIE | 0

# lookup: SPOT intensity of KDKSRPPRPPPKPLH
0

# lookup: SPOT intensity of HKVLRPFLLRRLKKD
1

# lookup: SPOT intensity of DRIRMFIRFPKFLLE
20

# lookup: SPOT intensity of VPKEPAPAPPPEPDM
0

# lookup: SPOT intensity of SLSRRRFSLPSMPNV
53

# lookup: SPOT intensity of SRYRRPLTLLLLKPF
10

# lookup: SPOT intensity of VRVKKRPLIRPLNSS
0

Reference source: paper PMC2756588
